Data origin: patent US6682898B2

- Measured on: T1, STAT1 protein (UniProt P42224 1-750, limits assumed)
- T1 sequence (looked up): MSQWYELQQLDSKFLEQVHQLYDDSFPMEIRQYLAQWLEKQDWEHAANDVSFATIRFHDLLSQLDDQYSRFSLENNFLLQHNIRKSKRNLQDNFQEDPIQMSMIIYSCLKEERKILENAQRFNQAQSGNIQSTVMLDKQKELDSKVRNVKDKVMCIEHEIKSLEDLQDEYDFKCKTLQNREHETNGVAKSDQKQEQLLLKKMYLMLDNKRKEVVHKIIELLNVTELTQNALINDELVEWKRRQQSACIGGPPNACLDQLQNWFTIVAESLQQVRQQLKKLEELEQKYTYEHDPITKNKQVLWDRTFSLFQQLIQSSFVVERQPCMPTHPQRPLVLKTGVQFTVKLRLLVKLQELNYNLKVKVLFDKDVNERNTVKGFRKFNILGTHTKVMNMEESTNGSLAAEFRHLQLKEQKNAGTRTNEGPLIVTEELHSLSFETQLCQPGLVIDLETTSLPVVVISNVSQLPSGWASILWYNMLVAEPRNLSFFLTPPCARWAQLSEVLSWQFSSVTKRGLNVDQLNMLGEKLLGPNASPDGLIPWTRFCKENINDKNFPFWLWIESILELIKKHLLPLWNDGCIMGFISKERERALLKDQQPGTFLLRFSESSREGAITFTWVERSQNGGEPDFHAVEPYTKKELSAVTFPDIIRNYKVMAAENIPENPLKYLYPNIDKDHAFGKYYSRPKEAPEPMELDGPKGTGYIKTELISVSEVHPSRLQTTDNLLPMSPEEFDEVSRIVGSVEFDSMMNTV
- Protocol details: concentration at 50% binding of the STAT protein to the phosphotyrosine peptide (Example 4)
Non-standard residues stand in square brackets, D forms with d. No end group written: not given here. pY = N[C@@H](Cc1ccc(OP(=O)(O)O)cc1)C(=O)O
Parameter: IC50 (nM)
Number only, in nM; omit the unit.

SFG[pY]DKPHVL [SFGY*DKPHVL] has a reported IC50 of 600
